These entries and their values trace back to DBAASP.

test system: Salmonella enterica serovar Typhimurium; assay: ≥ marks a high value that may be exact or a test limit, other limits are often not marked, values filed in µg/mL are converted to µM
measuredProperty: MIC (µM)
State just the number; it will be interpreted in µM.

Some solved entries appear below for comparison.
>  <smilesRepresentation>
CC[C@H](C)[C@H](NC(=O)[C@H](CCCN=C(N)N)NC(=O)[C@H](C)NC(=O)CNC(=O)[C@@H](N)CCCN=C(N)N)C(=O)N[C@H](C(=O)N[C@H](C(=O)N[C@H](C(=O)N[C@@H](CCCN=C(N)N)C(=O)N[C@H](C(=O)N[C@@H](C)C(=O)N[C@@H](CCCN=C(N)N)C(N)=O)C(C)C)[C@@H](C)CC)C(C)C)C(C)C

>  <valueMeasured>
22.7

$$$$
>  <smilesRepresentation>
CC(C)[C@H](NC(=O)[C@H](CCCN=C(N)N)NC(=O)[C@H](Cc1c[nH]c2ccccc12)NC(=O)[C@H](Cc1c[nH]c2ccccc12)NC(=O)[C@H](Cc1c[nH]c2ccccc12)NC(=O)[C@H](CCCN=C(N)N)NC(=O)[C@H](Cc1c[nH]c2ccccc12)NC(=O)[C@@H](N)CCCN=C(N)N)C(=O)N[C@@H](Cc1ccc(O)cc1)C(=O)O

>  <valueMeasured>
3.3

$$$$

Next:
Consider the molecule `CC(C)C[C@H](NC(=O)[C@H](CC(C)C)NC(=O)[C@H](CCCCN)NC(=O)[C@H](CCCCN)NC(=O)[C@H](C)NC(=O)[C@H](CC(C)C)NC(=O)[C@H](CCCCN)NC(=O)[C@H](C)NC(=O)[C@H](CC(C)C)NC(=O)[C@H](CC(C)C)NC(=O)[C@H](CCCCN)NC(=O)[C@H](C)NC(=O)[C@@H](N)Cc1ccccc1)C(N)=O` . State its measured MIC. 2.75

###

Recorded MIC values (Escherichia coli K88) are given below.
# output: bare number, implied unit µM

>  <smilesRepresentation>
C[C@H](NC(=O)[C@H](CCCN=C(N)N)NC(=O)[C@H](Cc1c[nH]c2ccccc12)NC(=O)[C@H](CCCN=C(N)N)NC(=O)[C@H](Cc1c[nH]c2ccccc12)NC(=O)[C@H](Cc1c[nH]c2ccccc12)NC(=O)[C@H](Cc1c[nH]c2ccccc12)NC(=O)[C@H](CCCN=C(N)N)NC(=O)[C@H](Cc1c[nH]c2ccccc12)NC(=O)[C@H](CCCN=C(N)N)NC(=O)[C@@H](N)[C@@H](C)O)C(N)=O

>  <targetUnderTest>
Escherichia coli K88

>  <MIC / µM>
2

$$$$

Okay, next one:
State MIC (Escherichia coli K88) of `CC[C@H](C)[C@H](NC(=O)[C@H](Cc1c[nH]c2ccccc12)NC(=O)[C@H](CCCCN)NC(=O)[C@H](CC(C)C)NC(=O)[C@@H](NC(=O)[C@H](Cc1c[nH]c2ccccc12)NC(=O)CNC(=O)[C@@H](NC(=O)[C@H](CCCCN)NC(=O)[C@H](CCCCN)NC(=O)[C@H](CC(C)C)NC(=O)[C@@H](N)CCCN=C(N)N)[C@@H](C)CC)C(C)C)C(N)=O` . 1

###

tested on: Pseudomonas aeruginosa; assay: ≥ marks a high value that may be exact or a test limit, other limits are often not marked, values filed in µg/mL are converted to µM
measuredProperty: MIC (µM)
Reply with just the number (in µM).

Consider the worked cases shown below.
>  <compound>
CC[C@H](C)[C@H](NC(=O)[C@H](CCCN=C(N)N)NC(=O)[C@H](CC(C)C)NC(=O)[C@H](CCC(N)=O)NC(=O)[C@@H](N)C(C)C)C(=O)N[C@@H](CCCN=C(N)N)C(=O)N[C@H](C(=O)N[C@@H](CS)C(=O)N[C@H](C(=O)N[C@H](C(=O)N[C@@H](CCCN=C(N)N)C(=O)N[C@@H](CCCN=C(N)N)C(=O)O)[C@@H](C)CC)C(C)C)C(C)C [VQLRIRVCVIRR]

>  <valueMeasured>
21.2

$$$$
>  <compound>
CC[C@H](C)[C@H](N)C(=O)N[C@@H](CC(N)=O)C(=O)N[C@@H](CC(C)C)C(=O)N[C@@H](CCCCN)C(=O)N[C@@H](C)C(=O)N[C@H](C(=O)N[C@@H](C)C(=O)N[C@@H](C)C(=O)N[C@@H](CC(C)C)C(=O)N[C@@H](C)C(=O)N[C@@H](CCCN=C(N)N)C(=O)N[C@@H](CC(N)=O)C(=O)N[C@@H](Cc1ccc(O)cc1)C(=O)O)[C@@H](C)CC [INLKAIAALARNY]

>  <valueMeasured>
6.99

$$$$

Look up MIC of CC[C@H](C)[C@H](NC(=O)[C@H](CC(C)C)NC(=O)[C@H](CCCN=C(N)N)NC(=O)[C@@H](NC(=O)[C@H](C)NC(=O)[C@H](CCCCN)NC(=O)[C@H](CCCN=C(N)N)NC(=O)[C@H](CC(C)C)NC(=O)[C@@H](N)CCCN=C(N)N)C(C)C)C(=O)N[C@@H](CCCCN)C(=O)O [RLRKAVRLIK] and report it. 10

###

What follows is a record of MIC for Staphylococcus aureus ATCC 25923.
Give just the numeric value; µM need not be written.

>  <molecule>
CC[C@H](C)[C@H](N)C(=O)N[C@@H](CC(N)=O)C(=O)N[C@@H](CC(C)C)C(=O)N[C@@H](CCCCN)C(=O)N[C@@H](C)C(=O)N[C@H](C(=O)N[C@@H](C)C(=O)N[C@@H](C)C(=O)N[C@@H](CC(C)C)C(=O)N[C@@H](C)C(=O)N[C@@H](CCCN=C(N)N)C(=O)N[C@@H](CC(N)=O)C(=O)N[C@@H](Cc1ccc(O)cc1)C(=O)O)[C@@H](C)CC [INLKAIAALARNY]

>  <MIC [µM]>
6.99

$$$$
>  <molecule>
CC[C@H](C)[C@H](NC(=O)CN)C(=O)N[C@@H](Cc1ccccc1)C(=O)NCC(=O)N[C@@H](CCCCN)C(=O)N[C@H](C(=O)N[C@@H](CC(C)C)C(=O)NCC(=O)N[C@@H](C)C(=O)NCC(=O)N[C@@H](CCCCN)C(=O)N[C@@H](CCCCN)C(=O)N[C@H](C(=O)N[C@@H](CC(C)C)C(=O)N[C@H]1CSSC[C@@H](C(=O)O)NC(=O)[C@H](CC(C)C)NC(=O)CNC(=O)[C@H](CO)NC(=O)[C@H](CC(C)C)NC(=O)CNC1=O)C(C)C)[C@@H](C)CC [GIFGKILGAGKKVLCGLSGLC]

>  <MIC [µM]>
15.7

$$$$
>  <molecule>
CC[C@H](C)[C@H](NC(=O)[C@H](CCCCN)NC(=O)[C@@H](NC(=O)[C@H](Cc1ccccc1)NC(=O)[C@H](C)NC(=O)[C@H](CCCCN)NC(=O)CNC(=O)[C@H](Cc1ccccc1)NC(=O)[C@H](CCCCN)NC(=O)[C@H](CCCCN)NC(=O)[C@H](C)NC(=O)[C@H](CCCCN)NC(=O)[C@H](CCCCN)NC(=O)[C@H](CC(C)C)NC(=O)[C@H](Cc1ccccc1)NC(=O)[C@H](CCCCN)NC(=O)CN)C(C)C)C(N)=O [GKFLKKAKKFGKAFVKI]

>  <MIC [µM]>
132

$$$$

Next molecule, MIC to be filled in.
Enter recorded MIC with Staphylococcus aureus ATCC 25923 for CC(C)[C@H](NC(=O)CNC(=O)[C@H](CCCN=C(N)N)NC(=O)[C@H](Cc1cnc[nH]1)NC(=O)[C@H](Cc1c[nH]c2ccccc12)NC(=O)[C@H](Cc1ccccc1)NC(=O)[C@H](Cc1cnc[nH]1)NC(=O)[C@H](Cc1ccc(O)cc1)NC(=O)[C@@H](N)Cc1ccc(O)cc1)C(=O)N[C@H](C(=O)N[C@@H](CCCCN)C(=O)N[C@@H](CCCN=C(N)N)C(=O)O)[C@@H](C)O [YYHFWHRGVTKR] here. 30

###

tested on: Staphylococcus aureus ATCC 6538; assay: ≥ marks a high value that may be exact or a test limit, other limits are often not marked, values filed in µg/mL are converted to µM
Recorded MIC, one value per entry.

>  <smilesRepresentation>
CC(C)C[C@H](NC(=O)[C@H](CCCCN)NC(=O)[C@H](C)NC(=O)[C@H](CC(C)C)NC(=O)[C@H](CC(C)C)NC(=O)[C@H](CCCCN)NC(=O)[C@H](C)NC(=O)[C@@H](N)Cc1ccccc1)C(=O)N[C@@H](C)C(=O)N[C@@H](CCCCN)C(=O)N[C@@H](C)C(=O)N[C@@H](CCCCN)C(=O)NCC(N)=O

>  <targetUnderTest>
Staphylococcus aureus ATCC 6538

>  <measuredProperty>
MIC

>  <valueMeasured>
> 147 µM

$$$$

Check the records and state MIC for `NCCCC[C@H](NC(=O)[C@H](CCCN=C(N)N)NC(=O)[C@H](CCCCN)NC(=O)[C@H](CC(N)=O)NC(=O)[C@@H](N)CCCCN)C(=O)N[C@@H](CCCN=C(N)N)C(=O)N[C@@H](CCCN=C(N)N)C(=O)N[C@@H](CCCN=C(N)N)C(=O)N[C@@H](CCCN=C(N)N)C(=O)N[C@@H](CCCN=C(N)N)C(=O)N[C@@H](CCCN=C(N)N)C(=O)NCC(=O)NCC(=O)N[C@@H](CCCN=C(N)N)C(=O)N[C@@H](CCCN=C(N)N)C(=O)N[C@@H](CCCN=C(N)N)C(=O)N[C@@H](CCCN=C(N)N)C(=O)O` 53.2 µM

// Input: `CC(C)[C@H](NC(=O)[C@H](CS)NC(=O)[C@@H](NC(=O)[C@H](CCCN=C(N)N)NC(=O)[C@H](CCCCN)NC(=O)CNC(=O)[C@H](CC(N)=O)NC(=O)[C@@H](N)CS)C(C)C)C(=O)N[C@@H](CS)C(N)=O` . Output its MIC only. > 102 µM
